# System: Pseudomonas aeruginosa
# test_name: Serum inactivation of peptides, serum MIC
# Type: cell-based
# measurement_parameters: sheep serum 37° C. 30 minutes; first of two columns
No end group written: not given here.
quantity_measured: MIC 30 min treatment (µg/mL)
Enter your answer as a number in µg/mL; do not include the unit.

Report MIC 30 min treatment, nothing else, for this substance: FAKKLAKKLKKLAKKLAK-NH2 [P69] 20

Report MIC 30 min treatment, nothing else, for this substance: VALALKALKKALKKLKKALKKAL-OH [P508] 40

Report MIC 30 min treatment, nothing else, for this substance: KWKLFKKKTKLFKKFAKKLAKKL-OH [P81] 20

Report MIC 30 min treatment, nothing else, for this substance: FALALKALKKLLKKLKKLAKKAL-NH2 [P24] 40

Report MIC 30 min treatment, nothing else, for this substance: FALKALKKLKKALKKAL-NH2 [P153] 10

Where these numbers come from: patent US20050209157A1
